# target_under_test: T1, human EphA4 (binding to human Ephrin A5) (Homo sapiens, UniProt P54764)
# T1 construct: made in house; not restated for the human SEAP-His protein
# assay_remarks: Human EphA4-human ligand binding inhibition ELISA of humanized antibodies (biotinylated Ephrin A5-Fc)
# condition_details: biotinylated human Ephrin A5-Fc 0.7 nM
test_readout: IC50 (nM)
Numbers only, in nM.

92 (antibody, V domains shown, constant regions without entry; synthetic humanized antibody light chain variable region sequence; synthetic humanized antibody heavy chain variable region sequence) VL: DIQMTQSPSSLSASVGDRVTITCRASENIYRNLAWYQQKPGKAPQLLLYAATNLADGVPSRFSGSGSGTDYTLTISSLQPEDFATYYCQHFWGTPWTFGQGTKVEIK VH: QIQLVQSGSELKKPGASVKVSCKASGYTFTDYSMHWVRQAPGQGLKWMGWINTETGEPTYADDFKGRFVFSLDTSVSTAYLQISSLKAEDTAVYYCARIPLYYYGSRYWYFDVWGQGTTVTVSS: 3.5

Here is another molecule to look at.
Lookup: Report IC50 for 67 (antibody, V domains shown, synthetic humanized antibody heavy chain variable region sequence; synthetic humanized antibody light chain variable region sequence) VH: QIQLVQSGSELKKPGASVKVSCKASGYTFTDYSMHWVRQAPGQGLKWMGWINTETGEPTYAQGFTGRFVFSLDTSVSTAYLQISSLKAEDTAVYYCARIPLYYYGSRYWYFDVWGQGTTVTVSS VL: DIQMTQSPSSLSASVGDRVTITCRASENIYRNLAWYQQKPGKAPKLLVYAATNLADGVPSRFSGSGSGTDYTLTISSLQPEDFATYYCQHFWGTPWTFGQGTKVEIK please.
Found: 4.4
